Molecular target: PfCDPK4 (Plasmodium falciparum (isolate 3D7))
Assay: biochemical
Conditions: read-out: PfCDPK4 (% inhibition @ 3 uM)
Answer class 0 if inhibition at 3 µM is under 90%, and class 1 if it is 90% or more.

>  <compound>
CC(C)n1nc(-c2cc3ccccc3[nH]2)c2c(N)ncnc21 [Compound 24]

>  <answer-label>
class 1

$$$$
>  <compound>
CCCOc1ccc2cc(-c3nn(CC4CCNCC4)c4ncnc(N)c34)ccc2c1 [Compound 33]

>  <answer-label>
class 1

$$$$
>  <compound>
O=C(NCCC1CCCNC1)Nc1nc2ccc(C(=O)c3ccccc3)cc2[nH]1 (stereo not drawn) [Compound 91]

>  <answer-label>
class 0

$$$$
>  <compound>
CC(C)n1nc(-c2cccc(Cl)c2)c2c(N)ncnc21 [Compound 7b]

>  <answer-label>
class 0

$$$$
>  <compound>
CC(C)n1nc(-c2cccc(OCc3ccccc3)c2)c2c(N)ncnc21 [Compound 7aa]

>  <answer-label>
class 0

$$$$
>  <compound>
CC(C)(C)n1nc(Cc2cccc3ccccc23)c2c(N)ncnc21 [Compound 5d]

>  <answer-label>
class 0

$$$$
>  <compound>
O=C(CC1CCNCC1)Nc1nc2ccc(C(=O)c3ccccc3)cc2[nH]1 [Compound 113]

>  <answer-label>
class 0

$$$$
>  <compound>
Cn1ccc2cc(-c3nn(C(C)(C)C)c4ncnc(N)c34)ccc21 [Compound 139]

>  <answer-label>
class 1

$$$$
>  <compound>
COc1ccc(-c2nn(C(C)C)c3ncnc(N)c23)cc1C [Compound 7m]

>  <answer-label>
class 0

$$$$
>  <compound>
Nc1ncnc2c1c(-c1ccc3cc(OCc4ccccc4)ccc3c1)nn2CC1CCNCC1 [Compound 34]

>  <answer-label>
class 1

$$$$
>  <compound>
COc1ccc(-c2nn(CC3CCNCC3)c3ncnc(N)c23)cc1C [Compound 144]

>  <answer-label>
class 1

$$$$
>  <compound>
CC(C)COc1ccc2cc(-c3nn(C(C)C)c4ncnc(N)c34)ccc2c1 [Compound 43]

>  <answer-label>
class 0

$$$$
